B1: ANKRD17 (parent)
chain: EMVRFLLEAGADQEHKTDEMHTAL

- Variants of: B1
- Test Details: protein stability index of a GFP-peptide fusion (GPS, HEK-293T) (PSI 1-6); higher = more stable;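 note: lentivirally expressed fusions sorted by FACS into six bins by GFP to DsRed ratio, PSI derived from sequencing read proportions per bin multiplied by bin number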
- Condition Details: c terminus: a fixed tail appended
Please provide measured protein stability index for the entries that follow.
Give a plain numeric answer without units written out.

Challenge: Output measured protein stability index for this item: A23I
Response given: 2.97

Challenge: Output measured protein stability index for this item: R4A
Response given: 2.99

Challenge: Output measured protein stability index for this item: A23E
Response given: 2.91

Challenge: Output measured protein stability index for this item: L24G
Response given: 3

Challenge: Output measured protein stability index for this item: A9S
Response given: 2.96

Challenge: Output measured protein stability index for this item: H21D
Response given: 2.96

Challenge: Output measured protein stability index for this item: M20K
Response given: 2.94

Challenge: Output measured protein stability index for this item: H15Q
Response given: 3

Reference source for all entries: the supplement of paper PMC10567573
